test system: A498 renal; experiment: NCI tumour cell line growth inhibition, 48 h
measured-endpoint: TGI

Example entries and their recorded answers appear below.
INSERT INTO measurements (compound, measured_endpoint, reported) VALUES
  ('CCc1n[nH]c(=O)n1N1C(=O)C2CC=CCC2C1=O (stereo not drawn)', 'TGI', '> 100 µM'),
  ('CCP(=O)(CC)C(Cl)(Cl)C(O)C(C)(C)C (stereo not drawn)', 'TGI', '> 100 µM');

I have this compound here, `O=C1OC(c2ccc(O)c(-c3ccccc3)c2)(c2ccc(O)c(-c3ccccc3)c2)c2c(Cl)c(Cl)c(Cl)c(Cl)c21` , and I need its recorded TGI.
> 100 µM

// returns reported TGI for input `COc1cnc2c(c1)C(=O)c1c-2n(CCCn2ccnc2)c(=O)c2cc(Cl)ccc12`
0.557 µM

What value of TGI has been reported for the following compound? COc1ccc2c3c1C(=O)CCC3CO2 (stereo not drawn)
> 100 µM

====

Catalogue of TGI values
system: SK-OV-3 ovarian; experiment: NCI tumour cell line growth inhibition, 48 h

Recorded results for 5 compounds are shown here.
INSERT INTO measurements (compound, target_of_assay, reported) VALUES
  ('O=C(NO)c1coc2ccccc2c1=O', 'SK-OV-3 ovarian', '31.4 µM'),
  ('CCP(=O)(CC)C(Cl)(Cl)C(O)C(C)(C)C (stereo not drawn)', 'SK-OV-3 ovarian', '> 100 µM'),
  ('CN1CCN(c2ccc3nc(-c4cc(C(C)(C)C)c(O)c(C(C)(C)C)c4)[nH]c3c2)CC1', 'SK-OV-3 ovarian', '21.8 µM'),
  ('O=P(O)(O)C(CSc1ccccc1)P(=O)(O)O', 'SK-OV-3 ovarian', '> 100 µM'),
  ('O=C(Nc1ccc(Br)cc1)Nc1n[nH]c2ccccc12', 'SK-OV-3 ovarian', '> 100 µM');

Test system SK-OV-3 ovarian; read-out TGI; what value for Nc1nc(Cl)cc(NCC2(CO)CCC(Cc3ccccc3)C2)n1 (stereo not drawn) ?
> 90.6 µM

Request body: readout TGI, system SK-OV-3 ovarian, query `COc1ccc(-c2n[nH]nc2-c2csc3ccccc23)cc1OC` . Return the value.
19.3 µM

Observed TGI on SK-OV-3 ovarian for `CCCN(CCC)c1ccc(CO)c(C)c1` , please.
> 100 µM

Notebook entry, SK-OV-3 ovarian assay: TGI of `Brc1ccc([I+]c2ccc(Br)cc2)cc1` = ?
3.12 µM

Notebook: pull reported TGI for SK-OV-3 ovarian, entry O=C1c2ccccc2CC12Cc1cc3c(cc1C2=O)CCC3 (stereo not drawn)
> 100 µM

Record lookup: for SK-OV-3 ovarian, what TGI belongs to `O=C(c1cc(Cl)cc(Cl)c1)N(C(=S)OC12CC3CC(CC(C3)C1)C2)c1ccccc1` ?
> 100 µM

Can you look up TGI on SK-OV-3 ovarian for `O=c1[nH]c2ccc(CC(=S)N3CCOCC3)cc2s1` ?
> 100 µM

Reported TGI for SK-OV-3 ovarian, given COc1ccc2c3c1OC1C(=O)C=CC4(O)C(C2)NCC[C@@]314 (stereo partly drawn) ?
11.2 µM

====

tested on: EKVX NSCLC; test: NCI tumour cell line growth inhibition, 48 h
Attribute: TGI

Recorded results for 6 compounds are shown here.
INSERT INTO measurements (compound, target_of_assay, reported) VALUES
  ('COC(=O)CCC(=O)c1c(C)[nH]c(/C=C2\N=C(c3ccc[nH]3)C=C2OC)c1C', 'EKVX NSCLC', '2.94 µM'),
  ('O=C(Cn1nc(Br)c(Br)c1Br)c1ccccc1', 'EKVX NSCLC', '> 100 µM'),
  ('CC1(c2ccc(Cl)cc2)CC(c2ccc(Cl)cc2)=C(C#N)C(=C(C#N)C#N)N1 (stereo unspecified)', 'EKVX NSCLC', '35.6 µM'),
  ('CC(=O)OC1COC(S[As](C)C)C(OC(C)=O)C1OC(C)=O (stereo unspecified)', 'EKVX NSCLC', '17.1 µM'),
  ('CCCN1C(=O)CCC2=C1CCc1c2ccc(Cl)c1Cl', 'EKVX NSCLC', '> 100 µM'),
  ('COc1ccc(C(c2ccc(C(C)C)cc(=O)c2O)c2c(O)cc3oc(-c4ccccc4)cc(=O)c3c2O)cc1 (stereo unspecified)', 'EKVX NSCLC', '> 100 µM');

Please look up its TGI: `Cc1ccc(C)c(NC(=O)c2cc(-c3ccc([N+](=O)[O-])cc3)nc(N)n2)c1`
> 100 µM

// returns reported TGI for input `O=C1OC(c2ccc(O)c(-c3ccccc3)c2)(c2ccc(O)c(-c3ccccc3)c2)c2c(Cl)c(Cl)c(Cl)c(Cl)c21`
> 100 µM

Dear colleague, I am looking for the recorded TGI of the following compound: `CCCNC(=S)N/N=C/c1cccc(C)n1`
> 100 µM

Looking for the measured TGI of `[Cu+2].[O-]c1ccc2ccccc2c1N=Nc1ccccc1.[O-]c1ccc2ccccc2c1N=Nc1ccccc1` , can you help?
> 100 µM

Item `C(=C1c2ccccc2-c2ccccc21)c1ccccn1` has what recorded TGI?
38.3 µM

Field request: TGI | item: `C=C1c2c(cc3c(c2O)c(=O)c2ccccc2n3C)OC1(C)C`
> 100 µM

Which TGI value belongs to `C=C(C=O)c1c2c(nc3ccccc13)C(=O)c1ccccc1C2=O` ?
3.61 µM

So what's the measured TGI for this one? `O=C1OCC(C#Cc2ccccc2)=C1Cl`
6.17 µM

What value of TGI has been reported for the following compound? CC(C)(C)c1ccc(CN2CCN(C(c3ccccc3)c3ccc(Cl)cc3)CC2)cc1 (stereo unspecified)
> 100 µM

Any idea what TGI was measured for `O=c1cc(Cl)nc[nH]1` ?
> 100 µM
